target: Paired box protein Pax-8 (Homo sapiens, UniProt Q06710); assay: PAX8 transcriptional activity inhibition in RMG-I – RMG-I cells, luciferase, cherry-pick, dose response (AID 687027); assay type: functional, cell-based;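 also: luciferase reporter driven by Pax8 target thyroperoxidase promoter measured by SteadyGlo luminescence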
Sequence (Q06710 whole entry): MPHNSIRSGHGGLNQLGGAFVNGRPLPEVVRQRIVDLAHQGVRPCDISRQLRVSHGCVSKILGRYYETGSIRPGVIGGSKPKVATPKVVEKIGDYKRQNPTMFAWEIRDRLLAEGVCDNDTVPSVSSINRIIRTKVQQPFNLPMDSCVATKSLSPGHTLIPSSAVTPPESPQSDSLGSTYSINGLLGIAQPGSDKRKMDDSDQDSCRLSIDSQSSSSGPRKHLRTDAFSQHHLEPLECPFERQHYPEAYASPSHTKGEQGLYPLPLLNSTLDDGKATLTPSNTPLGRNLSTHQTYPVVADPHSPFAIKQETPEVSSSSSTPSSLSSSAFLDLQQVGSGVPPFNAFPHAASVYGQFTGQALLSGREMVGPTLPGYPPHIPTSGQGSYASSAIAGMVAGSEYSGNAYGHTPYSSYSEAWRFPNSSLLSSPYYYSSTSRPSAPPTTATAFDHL
The source made the active and inactive calls.
Reported AC50 values for the following compounds.
measurement label: AC50

> print(dat)
                               smiles.input            result
1  O=C(C1CC1)N1C[C@@H]2N[C@H](C1)[C@@H]2c1ccc(-c2cccc(F)c2)cc1  6.38 µM (active)
2  O=C(c1ccc(Br)cc1)c1cc([N+](=O)[O-])ccc1N1CCCCC1  2.73 µM (active)
3  C[C@@H]1CCCCO[C@H](CN(C)CC2CCCCC2)[C@H](C)CN([C@@H](C)CO)C(=O)c2cc(NC(=O)Nc3ccccc3)ccc2O1  10.9 µM (active)
4          COc1ccc(C(=O)NNC(=O)c2ccccn2)cc1  7.51 µM (active)
5  COc1ccc(NC(=O)Nc2ccc3c(c2)C(=O)N([C@@H](C)CO)C[C@@H](C)[C@@H](CN(C)Cc2ccc(Cl)c(Cl)c2)OCCCC[C@@H](C)O3)cc1  14.1 µM (active)
6  C[C@H](CO)N1C[C@H](C)[C@@H](CN(C)Cc2ccc(C(F)(F)F)cc2)Oc2ccc(NS(=O)(=O)c3ccc(F)cc3)cc2CC1=O  11.9 µM (active)
7  C#CCN(C[C@@H]1[C@@H](OC(=O)NC2CCCC2)[C@@H](OC(=O)NC2CCCC2)Cn2c(=O)ccc(=O)n21)S(=O)(=O)c1ccc(C)cc1  6.12 µM (active)
8  CCn1nc(/C=C/c2ccccc2)nc2c(=O)n(C)c(=O)nc1-2  4.21 µM (active)
9              CN1c2ccccc2N(C)C1(C)c1ccccc1   9.4 µM (active)

###

target: DNA repair protein RAD52 homolog (Homo sapiens); assay type: functional, biochemical
Sequence (P43351 whole entry): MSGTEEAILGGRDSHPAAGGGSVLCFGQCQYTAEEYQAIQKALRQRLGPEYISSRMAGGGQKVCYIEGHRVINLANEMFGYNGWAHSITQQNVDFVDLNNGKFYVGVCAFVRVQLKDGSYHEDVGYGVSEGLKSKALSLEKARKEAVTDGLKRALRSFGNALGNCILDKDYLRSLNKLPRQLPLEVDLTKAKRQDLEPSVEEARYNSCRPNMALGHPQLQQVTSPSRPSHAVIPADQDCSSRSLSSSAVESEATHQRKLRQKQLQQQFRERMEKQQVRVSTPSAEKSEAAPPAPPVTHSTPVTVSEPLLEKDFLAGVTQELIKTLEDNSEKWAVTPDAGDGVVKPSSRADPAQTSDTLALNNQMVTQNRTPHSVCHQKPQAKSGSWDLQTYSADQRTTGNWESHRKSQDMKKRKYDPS
Activity calls are given as the source filed them.
Reported AC50 values for the following compounds.
measurement label: AC50

> print(dat)
                               smiles.input  measurement.label            result
1  Cc1ccc(C(=O)N/C(=C\c2ccc(-c3ccc(Cl)cc3)o2)C(=O)NCCCN(C)C)cc1               AC50  18.5 µM (active)
2  CCOCCCN=C(S)Nc1ccc2nc(N3CCN(CC)CC3)cc(C)c2c1               AC50    33 µM (active)
3  OCCN1CCN(CC/C=C2/c3ccccc3Sc3ccc(C(F)(F)F)cc32)CC1               AC50  21.2 µM (active)
4  Cc1ccc2nc(N(CCCN(C)C)C(=O)CN3C(=O)c4ccccc4C3=O)sc2c1               AC50  21.7 µM (active)
5  CC(C)C[C@@H]1CN=C(N)N1C[C@@H]1CCCN1C[C@@H](C(C)C)N1C[C@@H](Cc2ccccc2)N(CCc2ccc(Cl)c(Cl)c2)C1=N               AC50  16.7 µM (active)

###

Reported IC50 values for the following compounds.
Target: Caspase-3 (Homo sapiens, UniProt P42574);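 also: Dose-response selectivity test against caspase-3 for candidate inhibitors of sentrin-specific proteases (SENPs)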
Sequence (P42574 whole entry): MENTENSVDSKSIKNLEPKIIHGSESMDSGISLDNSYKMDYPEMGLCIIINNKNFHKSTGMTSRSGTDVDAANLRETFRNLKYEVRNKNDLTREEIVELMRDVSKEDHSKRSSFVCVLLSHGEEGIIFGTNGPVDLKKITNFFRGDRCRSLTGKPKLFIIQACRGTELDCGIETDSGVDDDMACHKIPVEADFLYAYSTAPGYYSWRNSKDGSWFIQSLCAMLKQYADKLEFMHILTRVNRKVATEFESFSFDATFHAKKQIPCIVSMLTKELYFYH
Type: functional
Activity calls are given as the source filed them.
measurement label: IC50

> print(dat)
                         smiles.input            result
1   CC(C)c1ccc(-c2nnn(CCC(=O)O)n2)cc1  48.6 µM (active)
2        Oc1ccccc1-c1csc(-c2ccccc2)n1  16.2 µM (active)
3   CN(C)c1ccc(C(=O)/C=C/c2ccccc2)cc1  8.33 µM (active)
4  Cc1ccc(NC(=O)c2ccc3c(c2)OCO3)cc1Cl    14 µM (active)
5       CCOC(=O)c1sc(Nc2ccccc2Cl)nc1C  26.6 µM (active)
6    Cc1ccccc1C(=O)Oc1ccc2ccc(O)cc2c1  35.4 µM (active)
